Recorded values, source ChEMBL document CHEMBL1129063.

Molecular target: Cyclooxygenase (Homo sapiens, UniProt P35354+P23219)
Assay: Inhibitory activity against Prostaglandin G/H synthase
Parameter: IC50. Scope: all listed entries.
Your answer is read as µM, so omit the unit and give the number.

The cases that follow already have their IC50 on record.
[
  {
    "substance_smiles": "O=C(O)CCCCCCCCCCN1C(=O)C=CC1=O",
    "study_target": "Cyclooxygenase (Homo sapiens, UniProt P35354+P23219)",
    "IC50 [µM]": 40
  },
  {
    "substance_smiles": "O=C(O)CCCCCCN1C(=O)C=CC1=O",
    "study_target": "Cyclooxygenase (Homo sapiens, UniProt P35354+P23219)",
    "IC50 [µM]": 570
  },
  {
    "substance_smiles": "O=C(O)CCCCCCCCCN1C(=O)C=CC1=O",
    "study_target": "Cyclooxygenase (Homo sapiens, UniProt P35354+P23219)",
    "IC50 [µM]": 37
  },
  {
    "substance_smiles": "O=C(O)CCCCCCCCN1C(=O)C=CC1=O",
    "study_target": "Cyclooxygenase (Homo sapiens, UniProt P35354+P23219)",
    "IC50 [µM]": 26
  },
  {
    "substance_smiles": "CCCCCCCCCN1C(=O)C=CC1=O",
    "study_target": "Cyclooxygenase (Homo sapiens, UniProt P35354+P23219)",
    "IC50 [µM]": 12
  },
  {
    "substance_smiles": "O=C(O)c1ccc(CN2C(=O)C=CC2=O)cc1",
    "study_target": "Cyclooxygenase (Homo sapiens, UniProt P35354+P23219)",
    "IC50 [µM]": 27
  },
  {
    "substance_smiles": "O=C(O)c1ccccc1OCCN1C(=O)C=CC1=O",
    "study_target": "Cyclooxygenase (Homo sapiens, UniProt P35354+P23219)",
    "IC50 [µM]": 250
  },
  {
    "substance_smiles": "Cc1ccccc1CN1C(=O)C=CC1=O",
    "study_target": "Cyclooxygenase (Homo sapiens, UniProt P35354+P23219)",
    "IC50 [µM]": 50
  },
  {
    "substance_smiles": "CCCCCCCCCCN1C(=O)C=CC1=O",
    "study_target": "Cyclooxygenase (Homo sapiens, UniProt P35354+P23219)",
    "IC50 [µM]": 14
  },
  {
    "substance_smiles": "CC(=O)Oc1ccc(N2C(=O)C=CC2=O)cc1C(=O)O",
    "study_target": "Cyclooxygenase (Homo sapiens, UniProt P35354+P23219)",
    "IC50 [µM]": 29
  }
]

Let's switch to this molecule now.
[Q] Record request: IC50 value, item `O=C(O)CCCCCCCCCCCN1C(=O)C=CC1=O`
[A] 140
